Listed here are compounds together with their documented λex.
# Measurement Notes: Absorption spectra of dye alone
# Assay type: physicochemical
# Stated Conditions: Ethanol
Give the quantity in nm, number only.

These solved cases illustrate the format of a correct answer.
Compound	Readout Kind	Measured
CCN(CC)c1ccc2c(c1)O/C(=C\c1cc(N(C)CCCN(C)C)[o+]c3cc(N(CC)CC)ccc13)C=C2C	λex	585
CCN(CC)c1ccc2c(/C=C3\Sc4ccccc4N3C)cc(N3CC[N+](C)(CCO)CC3)[o+]c2c1	λex	490
CCN1C(=Cc2cc(-c3ccccc3)[o+]c3cc(OC)ccc23)Sc2ccccc21	λex	488

What the record says about "CCN(CC)c1ccc2c(C=C3Sc4ccccc4N3CC)cc(C(C)(C)C)[o+]c2c1" : λex is 530

What the record says about "CCN(CC)c1ccc2c(/C=C3\Sc4ccccc4N3CC)cc(-c3ccccc3)[o+]c2c1" : λex is 550

What the record says about "CCN(CC)c1ccc2c(/C=C3\Oc4ccccc4N3CC)cc(-c3ccccc3)[o+]c2c1" : λex is 520

What the record says about "CCN(CC)c1ccc2c(/C=C3\Sc4ccccc4N3C)cc(N(C)CCCN(C)C)[o+]c2c1" : λex is 477

What the record says about CN1C(=Cc2cc[n+](C)c3ccccc23)Sc2ccccc21 [TO, Thiazole Orange, reference compound] : λex is 501

What the record says about "CCN1C(=Cc2cc(-c3ccccc3)[o+]c3cc(OC)ccc23)Oc2ccccc21" : λex is 464

What the record says about "CCN(CC)c1ccc2c(N(C)CCCN(C)C)cc(/C=C3\Sc4ccccc4N3C)[o+]c2c1" : λex is 498

What the record says about "CCN(CCCN(C)C)c1ccc2c(/C=C3\Sc4ccccc4N3CC)cc(C(C)(C)C)[o+]c2c1" : λex is 522

What the record says about "CCN(CC)c1ccc2c(/C=C3\Sc4ccccc4N3C)cc(N(C)CCC[N+](C)(C)C)[o+]c2c1" : λex is 481

What the record says about "CCN(CC)c1ccc2c(C=C3Oc4ccccc4N3CC)cc(C(C)(C)C)[o+]c2c1" : λex is 499

What the record says about "CCN1c2cc3[o+]c(N(C)CCCN(C)C)cc(/C=C4\Sc5ccccc5N4C)c3cc2C(C)=CC1(C)C" : λex is 492

What the record says about "CCN(CC)c1ccc2c(/C=C3\Sc4ccccc4N3C)cc(N3CCN(CCO)CC3)[o+]c2c1" : λex is 480

###

# Tested on: 40mer dsDNA
# Measurement Notes: Fluorescence enhancement of dye with 40mer dsDNA
# Assay type: binding
# Stated Conditions: fluorescence 40-mer ds-DNA vs ss-DNA
Note to self: values exactly at 2 are Yes. So Ratio ds/ss at or above 2 is Yes, below is No.

Sample answers from the record:
CCN(CC)c1ccc2c(C=C3Oc4ccccc4N3CC)cc(C(C)(C)C)[o+]c2c1 No
CCN(CC)c1ccc2c(/C=C3\Sc4ccccc4N3C)cc(N(C)CCCN(C)C)[o+]c2c1 Yes
CCN(CCCN(C)C)c1ccc2c(/C=C3\Sc4ccccc4N3CC)cc(C(C)(C)C)[o+]c2c1 Yes
CCN(CC)c1ccc2c(/C=C3\Sc4ccccc4N3C)cc(N3CCN(CCO)CC3)[o+]c2c1 No
CCN(CC)c1ccc2c(c1)O/C(=C\c1cc(N(C)CCCN(C)C)[o+]c3cc(N(CC)CC)ccc13)C=C2C No

Reported Ratio ds/ss at or above 2? "CCN(CC)c1ccc2c(/C=C3\Sc4ccccc4N3CC)cc(-c3ccccc3)[o+]c2c1"
Yes

Reported Ratio ds/ss at or above 2? "CCN(CC)c1ccc2c(N(C)CCCN(C)C)cc(/C=C3\Sc4ccccc4N3C)[o+]c2c1"
No

Reported Ratio ds/ss at or above 2? "CCN(CC)c1ccc2c(C=C3Sc4ccccc4N3CC)cc(C(C)(C)C)[o+]c2c1"
No
